target or system: T1, human LAG-3 expressed on cells (human, UniProt P18627 23-525)
T1 construct: whole, on cells; also called CD223
T1 sequence (looked up): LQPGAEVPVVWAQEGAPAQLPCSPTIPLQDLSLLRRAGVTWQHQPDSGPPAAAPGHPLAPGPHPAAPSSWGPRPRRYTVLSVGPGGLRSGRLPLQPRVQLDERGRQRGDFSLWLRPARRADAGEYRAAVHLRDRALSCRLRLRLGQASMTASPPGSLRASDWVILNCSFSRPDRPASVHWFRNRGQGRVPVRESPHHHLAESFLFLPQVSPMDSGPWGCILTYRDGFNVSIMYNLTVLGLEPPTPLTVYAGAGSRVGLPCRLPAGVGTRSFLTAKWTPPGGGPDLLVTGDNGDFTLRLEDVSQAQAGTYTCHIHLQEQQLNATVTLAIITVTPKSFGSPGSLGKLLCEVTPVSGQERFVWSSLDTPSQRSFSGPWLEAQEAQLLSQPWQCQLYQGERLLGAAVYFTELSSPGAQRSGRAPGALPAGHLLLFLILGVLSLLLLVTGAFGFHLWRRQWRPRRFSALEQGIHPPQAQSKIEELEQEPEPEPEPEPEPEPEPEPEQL
method summary: flow cytometry, Fab periplasmic extract on Jurkat cells expressing human LAG-3 (FIGS. 1A-1C)
parameter measured: binding result

* P01A12 Fab (Fab, V domains shown, Murine Fab, periplasmic extract) VH: EVQLQQSGAELVKPGASVKLSCTASGFNIKDTYMYWVKQRPEQGLDWIGRIDPANGNTKFDPKFQGKATITADTSSNTAYLQLSSLTSEDTAVYYCSTYYYRYDVGGFDYWGQGTTLTVS VL: DIVLTQSPALMAASPGEKVTITCSVSSSISSSNLHWYQQKSGTSPKLWIYGTSNLASGVPVRFSGSGSGTSYSLTISSMEAEDAATYYCQQWSSYPFTFGSGTKLEIK | binds
* P13F02 Fab (Fab, V domains shown, Murine Fab, periplasmic extract) VH: QVQLQQPGAELVKPGASVKLSCTASGFNIKDTYIHWVKQRPEQGLDWVGEIDPANGHTKYDPKFQGKATITADTSSNTAYLQLSSLTSEDTAVYYCATYYYRYDVGGFDYWGQGTTLTVS VL: ENVLTQSPALMAASPGEKVTITCSVSSSISSSNLHWFQQKSGTSPKLWIYGTSNLASGVPVRFSGSGSGTSYSLTISSMEAEDAATYYCQQWSSYPFTFGSGTKLEIK | binds
* P13C08 Fab (Fab, V domains shown, Murine Fab, periplasmic extract) VH: QVQLKQSGAELVKPGASVKLSCTASGFNIKDNYIHWVKQRPEQGLEWIGSIDPANGNTKYDPKFQGKASITADTSSNTAYLQLSSLTSEDTAVYYCASYFYRYDVGGFDYWGQGTTLTVS VL: DVVMTQTPALMAASPGEKVTITCSVSSSISSSNLHWFQQKSGTSPKLWIYGTSNLASGVPVRFSGSGSGTSYSLTISSMEAEDAATYYCQQWSSYPFTFGSGTKLEIK | binds
* P14G03 Fab (Fab, V domains shown, Murine Fab, periplasmic extract) VH: QVQMKQSGAELVKPGASVKLSCTASGFNIKDTYIHWVKQRPGQGLEWIGEIDPANGNTKYDPKFQGKATITADTSSNTAYLQLSSLTSEDTAVYYCATYYYRYDVGGFDYWGQGTTLTVS VL: DIVLTQSPALMAASPGEKVTITCSVSSSISSSNLYWFQQKSGTSPKLWIYGTSNLASGVPVRFSGSGSGTSYSLTISSMEAEDAATYYCQQWSSYPFTFGSGTKLEIK | binds
* P13E02 Fab (Fab, V domains shown, Murine Fab, periplasmic extract) VH: QVQLQQPGAELVKPGASVKLSCTVSGFNIKDTYIHWVKQRPEQGLEWIGEIDPANGNSKYAPRFQGKATITADTSSNTAYLQLSSLTSEDTAVYYCATYYYRYDVGGFDYWGQGTTLTVS VL: ENVLTQSPALMAASPGEKVTITCSVSSSISSSNLHWFQQKSGTSPKLWIYGTSNLASGVPVRFSGSGSGTSYSLTISSMEAEDAATYYCQQWSSYPFTFGSGTKLEIK | binds
* P01C09 Fab (Fab, V domains shown, Murine Fab, periplasmic extract) VH: QVQLKQSGAELVKPGASVKLSCTASGFNIKDTYMYWVKQRPEQGLEWIGRIDPANGNTKYDPKLQGKATITADTSSNTVYLQLSSLTSEDTAVFYCVIYSYRYDVGGFDYWGQGTTLTVS VL: EIVLTQSPALMAASPGEKVTITCSVSSSISSSNLHWYQQKSGTSPKLWIYGTSNLASGVPVRFSGSGSGTSYSLTISSMEAEDAATYYCQQWSSYPFTFGSGTKLEIK | binds
* P13G05 Fab (Fab, V domains shown, Murine Fab, periplasmic extract) VH: QVQLQQSGAELVKPGASVELSCTASGFNIRDTYMYWVKQRPEQGLEWIGRIDPANGNTKFDPKFQDRATMTADTSSNTAYLQLSSLTSEDTAVYYCTTYFYRYDVGGFDYWGQGTTLTVS VL: EIVLTQSPALMAASPGEKVTITCSVSSSISSSNLHWYQQKSGTSPKLWIYGTSNLASGVPVRFSGSGSGTSYSLTISSMEAEDAATYYCQQWSSYPFTFGSGTKLEIK | binds
* P13F09 Fab (Fab, V domains shown, Murine Fab, periplasmic extract) VH: QVQLQQSGAELVKPGASVKLSCTASGFNIKDNYIHWVKQRPEQGLEWIGSIDPANGNTKYDPKFQGKASITADTSSNTAYLQLSSLTSEGTAVYYCASYFYRYDVGGFDYWGQGTTLTVS VL: EIVLTQSPALMAASPGEKVTITCSVSSSISSSNLHWFQQKSGTSPKLWIYGTSNLASGVPVRFSGSGSGTSYSLTISSMEAEDAATYYCQQWSSYPFTFGSGTKLEIK | binds
* P13B01 Fab (Fab, V domains shown, Murine Fab, periplasmic extract) VH: EVQLQQSGAELVKPGASVKLSCTASGFNIKDTYIYWVKQRPERGLEWIGRIDPANGNTKFDPKFQGTATITADTSSNTAYLQLSSLTSEDTAVYYCTTYFYRYDVGGFDYWGQGTTLTVS VL: ENVLTQSPALMAASPGEKVTITCSVSSSISSSNLHWYQQKSGTSPKLWIYGTSNLASGVPVRFSGSGSGTSYSLTISSMEAEDAATYYCQQWSSYPFTFGSGTKLEIK | binds
* P13A06 Fab (Fab, V domains shown, Murine Fab, periplasmic extract) VH: QVQLKQSGAELVKPGASVKLSCTASGFNIKDTYMYWVKQRPEQGLEWIGRIDPANGNTKYDPKFQGKATITADTSSNTVYLQLSSLTSEDTAVFYCVIYSYRYDVGGFDYWGQGTTLTVS VL: ENVLTQSPALMAASPGEKVTITCSVSSSISSSNLHWYQQKSGTSPKLWIYGTSNLASGVPVRFSGSGSGTSYSLTISSMEAEDAATYYCQQWSSYPHTFGGGTKLEIK | binds

src = patent US20250206818A1
